Target: PAK4 Catalytic Domain (Homo sapiens)
Construct: For all of them, we expressed and purified the catalytic domain separately; His-tag; made in house; host or cells: Escherichia coli
Sequence (O96013 321-572 limits assumed): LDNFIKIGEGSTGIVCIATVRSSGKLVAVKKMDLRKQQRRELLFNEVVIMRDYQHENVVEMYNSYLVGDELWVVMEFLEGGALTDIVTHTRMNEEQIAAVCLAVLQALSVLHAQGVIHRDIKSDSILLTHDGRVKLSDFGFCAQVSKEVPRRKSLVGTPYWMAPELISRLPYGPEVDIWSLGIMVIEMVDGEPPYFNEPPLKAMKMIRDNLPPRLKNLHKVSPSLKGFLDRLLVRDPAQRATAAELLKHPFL
Assay: Differential Scanning Fluorimetry (DSF) Tm shift
Assay type: binding
Details: 2 µM protein, 10 µM inhibitor, average of 3 experiments, each in duplicate
MEASUREMENT KIND: Melting temperature (Tm) shift (degrees Celcius)
Form entry: value (degrees Celcius) — number only.

Field: example entries. Status: answers known.
[[record]]
compound = "O=C(c1ccc(Nc2nccc(-c3cc4ccccc4s3)n2)cc1)N1CCC(N2CCCC2)CC1"
reported = 1.7

[[record]]
compound = "CCCC(=O)Oc1ccc2[nH]c(C(=O)c3cc4ccccc4[nH]3)cc2c1"
reported = 0.0

[[record]]
compound = "COc1cc2ncnc(Nc3ccc(Cl)cc3Cl)c2cc1OC"
reported = 0.0

[[record]]
compound = "Cc1cc(Nc2nc(-c3ccccc3)nc3ccccc23)n[nH]1"
reported = 3.0

[[record]]
compound = "NC(=O)Nc1sc(-c2ccccc2)cc1C(N)=O"
reported = 1.3


# value lookup — system PAK4 Catalytic Domain (Homo sapiens), readout Melting temperature (Tm) shift, item CCCCn1c2ccc(O)cc2c2c3c(c(-c4ccccc4Cl)cc21)C(=O)NC3=O
0.5

Melting temperature (Tm) shift of CCn1cnc2c(Nc3cccc(Cl)c3)nc(N[C@H]3CCCC[C@H]3N)nc21 [Cdk1 Inhibitor, CGP74514A] on PAK4 Catalytic Domain (Homo sapiens)?
5.6

Query for PAK4 Catalytic Domain (Homo sapiens): what Melting temperature (Tm) shift does the record show for Cc1ccc([N+](=O)[O-])cc1S(=O)(=O)N(C)N=Cc1cnc2ccc(Br)cn12.Cl.O.O ?
3.0

What is its Melting temperature (Tm) shift for PAK4 Catalytic Domain (Homo sapiens)? Entry: O=C1Nc2ccccc2C1=C1Nc2ccccc2C1=NOCCC(O)CO (stereo not drawn)
1.9

Missing value: Melting temperature (Tm) shift, PAK4 Catalytic Domain (Homo sapiens), entry COc1cc(Nc2ncc3ccn(-c4cccc(CCC#N)c4)c3n2)cc(OC)c1OC . Fill in?
5.5

Provide value of Melting temperature (Tm) shift for this record tested with PAK4 Catalytic Domain (Homo sapiens): N#Cc1cnc2cnc(NCc3cccnc3)cc2c1Nc1ccc(F)c(Cl)c1
0.5
